# target.or.system: Voltage-gated potassium channel subunit beta-2 (Rattus norvegicus) (UniProt P62483)
# Sequence (P62483 whole entry, looked up): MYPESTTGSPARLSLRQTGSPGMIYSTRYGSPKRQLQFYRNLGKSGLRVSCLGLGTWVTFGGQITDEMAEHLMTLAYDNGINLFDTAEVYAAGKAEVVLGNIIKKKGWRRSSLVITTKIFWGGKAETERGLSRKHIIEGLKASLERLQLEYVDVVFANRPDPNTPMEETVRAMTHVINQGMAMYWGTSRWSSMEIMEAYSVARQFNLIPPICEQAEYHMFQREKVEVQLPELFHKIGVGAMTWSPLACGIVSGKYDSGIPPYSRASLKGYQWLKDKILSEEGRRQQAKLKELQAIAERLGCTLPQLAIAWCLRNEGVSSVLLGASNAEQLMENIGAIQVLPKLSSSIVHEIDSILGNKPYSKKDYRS
# test: enhancers of rat Kvbeta2 NADPH turnover – biochemical, NADPH fluorescence, primary screen (AID 623);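 note: fluorescence intensity change per second fitted from 20 to 320 s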
# condition.notes: Recombinant KvBeta, NADPH fluorescence decrease slope, 10 min; at 10 µM; stronger effect = lower value
reported.endpoint: NADPH fluorescence slope
Reply with the value as a number alone.

Reference set, count: 4
Exam item: Any idea what its NADPH fluorescence slope is? The compound is CN(CCNC(=O)c1ccc(N2CCCC2=O)cc1)CCc1ccccc1
Marked response: -2.4e-05

Exam item: Item Cc1cccc(OCc2nc(C#N)c(NCCN(C)C)o2)c1 has what recorded NADPH fluorescence slope?
Marked response: -3.5e-05

Exam item: Entry COC(=O)c1ccc(CSc2nc3ccccc3s2)o1 : reported NADPH fluorescence slope = ?
Marked response: -1.1e-05

Exam item: Bench note: what NADPH fluorescence slope did O=C(NCc1cccnc1)c1ccc(Cl)c(Cl)c1 show?
Marked response: -5.9e-06

Further cases:
Exam item: May I ask what NADPH fluorescence slope has been recorded for COc1ccccc1NC(=O)C1CC(=O)N(c2ccc(F)cc2)C1 (configuration not stated) ?
Marked response: -9.7e-05

Exam item: Please look up its NADPH fluorescence slope: O=C(c1cnc2sccn2c1=O)N1CCc2ccccc2C1
Marked response: -5.3e-05

Exam item: Would you mind telling me what NADPH fluorescence slope value was observed for O=C(Nc1ccc(Cc2ccncc2)cc1)C1CC1 ?
Marked response: 2.8e-05

Exam item: Give its NADPH fluorescence slope value. Item: O=C(Nc1ccccc1)N1C(=O)C2(OCCO2)c2ccccc21
Marked response: -0.000137

Exam item: Value lookup for NADPH fluorescence slope; key = O=C(Nc1ccon1)c1cc(-c2ccccc2)nc2ccccc12
Marked response: -6.3e-05

Exam item: Which NADPH fluorescence slope reading was recorded for the compound COc1cccc(-c2csc3nc[nH]c(=O)c23)c1 ?
Marked response: -3.4e-05

Exam item: Consider the compound shown here: O=C1C2CCCN2C(c2ccccc2)N1c1ccc(Cl)cc1 (configuration not stated) What is its recorded NADPH fluorescence slope?
Marked response: -6.3e-05

Exam item: Fill in: NADPH fluorescence slope of CCN(Cc1cc2cc(OC)ccc2[nH]c1=O)C(=O)Cc1ccc(OC)cc1 is ___
Marked response: -9.8e-05

* * *

# test: TLR3 IRF3 reporter activation blockers – cell-based, poly I:C stimulus, luciferase, 10K MLSCN set, primary screen (AID 602277)
# condition.notes: HEK293-TLR3 RL24 IRF3 luciferase reporter, at 10 µM, stronger effect = higher value
reported.endpoint: inhibition (%)
// return numeric value only (unit: %, not printed)

Some molecules with known inhibition results, for comparison:
Exam item: Given COC(=O)C1=C(N)Oc2cc(C)n(Cc3ccncc3)c(=O)c2C1c1cccnc1 (stereo unspecified) , state its recorded inhibition.
Marked response: 14.1

Exam item: Given the entry COc1ccccc1NC(=O)N(Cc1ccccc1)c1ccccn1 , report its measured inhibition.
Marked response: -38.8

Exam item: I would be grateful if you could share the reported inhibition for Cc1nnc(N(C)C(=O)c2cccnc2)s1 .
Marked response: -1.4

Exam item: What inhibition value was documented for this molecule, CCCCOC(=O)c1cccc(NC(=O)CC)c1 ?
Marked response: -123

Exam item: Sample COc1cc2c(cc1OC)C(c1ccccc1O)N(C1CC(=O)N(c3ccccc3)C1=O)CC2 (stereo unspecified) — what was its inhibition?
Marked response: 28.7

---
Exam item: Item CCCCc1ccc(NC(=O)C2CCCO2)cc1 (stereo unspecified) has what recorded inhibition?
Marked response: -136

Each recorded value in this set is attributed to PubChem BioAssay.
